meta.source: patent US20120027773A1

Molecular target: T1, recombinant human RON SEMA and PSI domains (human, UniProt Q04912 25-571)
T1 construct: domain: SEMA+PSI; Commercial protein (R&D Systems); also called rhRON SEMA+PSI; hRON SEMA+PSI
Assay: SPR, purified Ab captured on anti-human IgG Fc, 37 C
Recorded koff for the following binders
Express it in s⁻¹; write the number only.

Sh07F01-69 (antibody, human IgG1, kappa, V domains shown, Humanized, human IgG1/kappa: Sh07F01 Hv3-48 IgG1 + Sh07F01 Kv1-9 F1 Kappa) VH: EVQLVESGGGLVQPGGSLRLSCAASGFDFSRHWMSWVRQAPGKGLEWVSEINPDSRTINYTPSLKERFTISRDNAKNSLYLQMNSLRAEDTAVYYCARRVRIHYYGAMDSWGQGTTVTVSS VL: DIQLTQSPSFLSASVGDRVTITCRASQNVGSSLVWYQQKPGKAPKTLIYSASFLYSGVPSRFSGSGSGTEFTLTISSLQPEDFATYYCQQYNNYPLTFGGGTKVEIKR: 0.00078

# next binder below
Incoming: # koff lookup, item Sh07F01-62 (antibody, human IgG1, kappa, V domains shown, Humanized, human IgG1/kappa: Sh07F01 Hv3-48 D28T T60A L63V E65G IgG1 + HE L 07F01 Kv1-9 Kappa) VH: EVQLVESGGGLVQPGGSLRLSCAASGFTFSRHWMSWVRQAPGKGLEWVSEINPDSRTINYAPSVKGRFTISRDNAKNSLYLQMNSLRAEDTAVYYCARRVRIHYYGAMDSWGQGTTVTVSS VL: DIQLTQSQSFVSTSVGDRVTVTCRASQNVGSSLVWYQQKPGKSPKTLIYSASFLYSGVPSRFSGSGSGTEFTLTISSVQPEDFADYFCQQYNNYPLTFGGGTKVEIKR
Outgoing: 0.00069
